FYI, the data here is from patent US20250388589A1.

Below, each entry is listed with its recorded IC50.
Assayed Target: hPARG (C-terminal His6-tag) (Homo sapiens (Human), UniProt Q86W56)
Sequence (Q86W56 whole entry): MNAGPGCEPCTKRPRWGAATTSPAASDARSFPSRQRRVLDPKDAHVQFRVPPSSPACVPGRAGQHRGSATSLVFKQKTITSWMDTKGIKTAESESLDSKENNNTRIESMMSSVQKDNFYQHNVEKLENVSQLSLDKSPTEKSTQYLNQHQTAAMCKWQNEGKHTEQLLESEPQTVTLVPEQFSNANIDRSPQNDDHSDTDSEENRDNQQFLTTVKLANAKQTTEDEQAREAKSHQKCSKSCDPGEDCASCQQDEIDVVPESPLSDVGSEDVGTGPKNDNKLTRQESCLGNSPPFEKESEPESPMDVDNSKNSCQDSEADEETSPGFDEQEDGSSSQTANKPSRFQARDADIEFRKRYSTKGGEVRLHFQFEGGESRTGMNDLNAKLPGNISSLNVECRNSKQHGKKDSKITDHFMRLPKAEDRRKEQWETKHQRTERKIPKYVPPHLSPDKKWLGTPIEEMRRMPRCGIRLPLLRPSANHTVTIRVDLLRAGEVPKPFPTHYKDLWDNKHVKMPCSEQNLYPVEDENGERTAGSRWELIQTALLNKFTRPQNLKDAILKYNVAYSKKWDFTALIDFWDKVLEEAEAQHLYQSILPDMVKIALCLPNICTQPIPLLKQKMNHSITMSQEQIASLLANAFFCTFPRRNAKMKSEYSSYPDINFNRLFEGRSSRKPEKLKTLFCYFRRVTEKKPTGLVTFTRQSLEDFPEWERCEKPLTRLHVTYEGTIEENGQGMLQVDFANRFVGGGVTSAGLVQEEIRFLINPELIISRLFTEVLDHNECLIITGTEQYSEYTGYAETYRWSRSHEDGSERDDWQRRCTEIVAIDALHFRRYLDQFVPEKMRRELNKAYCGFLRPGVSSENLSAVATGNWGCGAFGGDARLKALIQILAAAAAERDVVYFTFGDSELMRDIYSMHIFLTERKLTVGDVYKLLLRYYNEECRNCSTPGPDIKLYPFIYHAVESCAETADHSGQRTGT
Test Summary: PARG Enzymatic Activity Assay (HTRF)
Assay type: biochemical
Condition Set: hPARG 65 pM final, biotinylated-NAD ribosylated PARP1 8 nM final

What IC50 value was documented for this molecule, CC(C)C(=O)N1CCN(c2ncnc3c2c2ccc(S(=O)(=O)NC4(C#N)CC4)cc2n3-c2nnc(C(F)F)s2)C[C@@H]1CO ?
< 100 nM

Any idea what its IC50 is? The molecule is CC(C)[S+]([O-])N1CCN(c2ncnc3c2c2ccc(S(=O)(=O)NC4(C#N)CC4)cc2n3-c2nnc(C(F)F)s2)CC1 (stereo not drawn)
< 100 nM

Fill in the blank: the reported IC50 of CC(C)(C)[S+]([O-])N1CCN(c2ncnc3c2c2ccc(S(=O)(=O)NC4(C#N)CC4)cc2n3-c2nnc(C(F)F)s2)CC1 (stereo not drawn) is ____.
< 100 nM
